# Tested on: P12-Ichikawa
# Assay procedure: cell viability relative to DMSO control; higher = less cytotoxic
# Applied conditions: HPLM + 10% dialyzed FBS; 48 h; 0.00702 µM
What cell viability was measured for each of the following?
One number for each entry, in %.

Hi there! I need cell viability for each item below, if you can.
1. Clc1ccc(C(Cn2ccnc2)OCc2ccc(Sc3ccccc3)cc2)c(Cl)c1 (stereo not drawn)
2. COc1cc([C@@H]2c3cc4c(cc3[C@@H](O[C@@H]3O[C@@H]5CO[C@@H](C)O[C@H]5[C@H](O)[C@H]3O)[C@H]3COC(=O)[C@H]23)OCO4)cc(OC)c1O
3. CC(=O)O[C@@]12CO[C@@H]1C[C@H](O)[C@]3(C)[C@@H]2[C@H](OC(=O)C4=CC=CC=C4)[C@]5(O)C[C@H](O)/C(=C(/[C@@H](O)C3=O)C5(C)C)C
4. CC(C)(OCc1nn(Cc2ccccc2)c2ccccc12)C(=O)O
5. O=C(N[C@H]1CN2CCC1CC2)c1ccc(Cl)cc1
6. COC1=CC2=C(C=C1CC3=C(F)C(=CC=C3)Cl)C(=O)\C(=C/N2[C@H](CO)C(C)C)C(O)=O
7. N#C[C@@H]1C[C@@H]2C[C@@H]2N1C(=O)[C@@H](N)C12CC3CC(CC(O)(C3)C1)C2
8. COc1ccc(CC2SC(=O)NC2=O)cc1C(=O)NCc1ccc(C(F)(F)F)cc1 (stereo not drawn)

Output line:
[107, 90.2, 72.1, 101, 104, 122, 115, 90.5]

State the recorded cell viability for every item in the following list.
1. NNC(=O)c1ccncc1
2. COc1c(C)c2c(c(O)c1C/C=C(\C)CCC(=O)OCCN1CCOCC1)C(=O)OC2

Output line:
119
114

---

# Tested on: NOMO1
# Assay procedure: cell viability relative to DMSO control; higher = less cytotoxic
# Applied conditions: HPLM + 10% dialyzed FBS; 48 h; 5.12 µM
Quantity measured: cell viability
# do not omit the unit; it follows the number

Would you mind giving cell viability for every compound in the list below?
1. NNC(=O)c1ccncc1
2. Cc1ccc([S+](=O)([O-])NC(=O)NN2CC3CCCC3C2)cc1 (centres undefined)
3. COc1ccc(-c2cc3c(C)nc(N)nc3n([C@H]3CC[C@H](OCCO)CC3)c2=O)cn1
4. O=C(O)c1nn(Cc2ccc(Cl)cc2Cl)c2ccccc12
5. CON(C)C(=O)N1\N=C(/S[C@]1(CCCN)C2=CC=CC=C2)C3=CC(=CC=C3F)F
6. N[S+](=O)([O-])c1cc2c(cc1Cl)NCN[S+]2(=O)[O-]

Output line:
["137%", "111%", "38.8%", "92.3%", "32.1%", "103%"]

---

Assignment: determine reported cell viability for the given compounds.
# Tested on: P12-Ichikawa
# Assay procedure: cell viability relative to DMSO control; higher = less cytotoxic
# Applied conditions: RPMI 5 mM glucose + 10% FBS; 48 h; 0.00234 µM
Numbers only, in %.

CNC(=O)c1cc(COc2nnc(Nc3ccc(Cl)cc3)c3ccoc23)ccn1	116
Cc1ccc(C)c(OCCCC(C)(C)C(=O)O)c1	86.9
O=C(Nc1cccc2c(=O)cc(-c3nnn[nH]3)oc12)c1ccc(OCCCCc2ccccc2)cc1	84.9
COc1c(C)c2c(c(O)c1C/C=C(\C)CCC(=O)OCCN1CCOCC1)C(=O)OC2	105
NC/1=N/C(=O)C2=C([NH]C=C2CCC3=CC=C(C=C3)C(=O)N[C@@H](CCC(O)=O)C(O)=O)N1	113
CN1\C(=C(O)/C2=C(C=C(Cl)S2)[S+]1([O-])=O)C(=O)NC3=NC=CC=C3	125
CC(C)C[C@@H](C(=O)N[C@H](C(=O)OC1CCCC1)c1ccccc1)[C@H](O)C(=O)NO	119
CN1CCC(=C2c3ccccc3CCc3sccc32)CC1	116

// next entry
The value of cell viability measured for the compound `CN(C)c1ccccc1CN1CCCN(Cc2ccccc2N(C)C)C1c1ccncc1` turned out to be 90.7
